# test_system: IRAK4 (Homo sapiens (Human))
# Sequence (Q9NWZ3 whole entry): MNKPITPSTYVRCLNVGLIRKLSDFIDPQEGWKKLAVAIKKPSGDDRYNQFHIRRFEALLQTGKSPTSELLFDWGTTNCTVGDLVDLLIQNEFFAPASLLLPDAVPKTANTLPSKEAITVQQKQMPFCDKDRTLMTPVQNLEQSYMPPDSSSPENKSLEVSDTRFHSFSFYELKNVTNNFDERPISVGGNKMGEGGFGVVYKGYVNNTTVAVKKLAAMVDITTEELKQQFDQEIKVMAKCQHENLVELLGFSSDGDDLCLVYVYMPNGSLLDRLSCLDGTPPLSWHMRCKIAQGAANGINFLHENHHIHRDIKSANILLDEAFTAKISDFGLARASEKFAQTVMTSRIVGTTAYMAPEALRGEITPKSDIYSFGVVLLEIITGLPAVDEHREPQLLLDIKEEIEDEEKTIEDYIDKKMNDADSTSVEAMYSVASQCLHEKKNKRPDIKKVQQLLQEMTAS
# protocol_description: IRAK4 Degradation HiBiT Assay
# setup_conditions: read-out: Cellular IRAK4 HiBiT: DC50; Table 4; HiBiT-tagged Jurkat cells, 4 hrs
Give DC50 for every item shown.
Give bare numbers, in µM.

Worked examples follow.
>  <compound>
CNc1cc(-c2ccc3cc(C#N)cnn23)ncc1-c1nnc([C@H]2CC[C@H](NC(=O)CCCCCCCNc3ccc4c(c3)C(=O)N(C3CCC(=O)NC3=O)C4=O)CC2)s1 (stereo partly shown)

>  <reading_unit>
µM

>  <DC50>
0.0104

$$$$
>  <compound>
Cc1ncsc1-c1ccc([C@H](C)NC(=O)[C@@H]2C[C@@H](O)CN2C(=O)[C@@H](NC(=O)CCCCCC(=O)N2CCN(c3nnc(-c4cnc(-c5ccc6cc(C#N)cnn56)cc4NC(C)C)s3)CC2)C(C)(C)C)cc1

>  <reading_unit>
µM

>  <DC50>
0.24

$$$$
>  <compound>
CC(C)Nc1cc(-c2ccc3cc(C#N)cnn23)ncc1-c1nnc(N2CCN(C(=O)CCCCCCCNc3ccc4c(c3)C(=O)N(C3CCC(=O)NC3=O)C4=O)CC2)s1 (stereo not shown)

>  <reading_unit>
µM

>  <DC50>
0.084

$$$$
>  <compound>
CN[C@@H](C)C(=O)N[C@H](C(=O)N1C[C@@H](NC(=O)CCCCCCCCCCC(=O)N2CCN(c3nnc(-c4cnc(-c5ccc6cc(C#N)cnn56)cc4NC(C)C)s3)CC2)C[C@H]1C(=O)N[C@@H]1CCCc2ccccc21)C1CCCCC1

>  <reading_unit>
µM

>  <DC50>
0.993

$$$$
>  <compound>
CC(C)Nc1cc(-c2ccc3cc(C#N)cnn23)ncc1-c1nnc(N2CCN(C(=O)CCCCCNc3cccc4c3C(=O)N(C3CCC(=O)NC3=O)C4=O)CC2)s1 (stereo not shown)

>  <reading_unit>
µM

>  <DC50>
0.218

$$$$

Hey, quick one: what's DC50 for each of these?
1. Cc1ncsc1-c1ccc([C@H](C)NC(=O)[C@@H]2C[C@@H](O)CN2C(=O)[C@@H](NC(=O)CCCCC(=O)N2CCN(c3nnc(-c4cnc(-c5ccc6cc(C#N)cnn56)cc4NC(C)C)s3)CC2)C(C)(C)C)cc1
2. CNc1cc(-c2ccc3cc(C#N)cnn23)ncc1-c1nnc([C@H]2CC[C@H](NC(=O)CCOCCNc3ccc4c(c3)C(=O)N(C3CCC(=O)NC3=O)C4=O)CC2)s1 (stereo partly shown)
3. CNc1cc(-c2ccc3cc(C#N)cnn23)ncc1-c1nnc([C@H]2CC[C@H](NC(=O)CCCCCC(=O)N[C@H](C(=O)N3C[C@H](O)C[C@H]3C(=O)N[C@@H](C)c3ccc(-c4scnc4C)cc3)C(C)(C)C)CC2)s1
4. CC(C)Nc1cc(-c2ccc3cc(C#N)cnn23)ncc1-c1nnc(N2CCN(C(=O)CCCCCCCNc3cccc4c3C(=O)N(C3CCC(=O)NC3=O)C4=O)CC2)s1 (stereo not shown)
5. CNc1cc(-c2ccc3cc(C#N)cnn23)ncc1-c1nnc([C@H]2CC[C@H](NC(=O)CCOCCOCCOCCNc3cccc4c3C(=O)N(C3CCC(=O)NC3=O)C4=O)CC2)s1 (stereo partly shown)

### Response
[0.357, 0.0081, 0.0745, 0.0538, 0.0063]
